All values here come from patent US20060121580A1.

- targetEntity: SARS-CoV preparation (Frankfurt 1 strain)
- runDescription: phage ELISA on coated SARS-CoV preparation, plate 2 (no phage antibody 0.211)
// reported OD492 nm for each item listed
reportedMetric: OD492 nm (OD492 nm)

{"columns": ["binder", "reportedResult"],
 "data": [
  ["SC03-021 (scFv) scFv: AMAQVQLVQSGTEVKKPGESLKISCKGSGYGFITYWIGWVRQMPGKGLEWMGIIYPGDSETRYSPSFQGQVTISADKSINTAYLQWSSLKASDTAIYYCAGGSGISTPMDVWGQGTTVTVSSGTGGSGGTGSGTGGSTDVVMTQSPDSLAVSLGERATINCKSSQSVLHSSNNKNYLAWYQQKPGQPPKLLIYWASTRQSGVPDRFSGSGSGTDFTLTISSLQAEDVAVYYCQQYYSTPPTFGQGTKVEIKRAA", 0.215],
  ["SC03-026 (scFv) scFv: AMAQVQLVQSGGGLVQPGGSLRLSCAASGFTFSSYAMHWVRQAPGKGLEYVSGISSNGGSTYYANSVKGRFTISRDNSKNTLYLQMGSLRAEDMAVYYCARTTNRAFDIWGQGTMVTVSSGTGGSGGTGSGTGGSTDIQMTQSPDSLAVSLGERATINCKSSQSILYSSNSKNYLGWYQQKPGQPPKLLIYWASTRESGVPDRFSGSGSGTDFTLTISSLQAEDVAVYYCQQYYSTPYSFGQGTKVEIKRAA", 1.07],
  ["SC03-023 (scFv) scFv: AMAQVQLQQWGAGLLKPSETLSLTCAVYGGSFSGFYWSWIRQPPGKGLEWIGEINHSGSTNYNPSLKSRVTISVDTSKNQFSLKLSSVTAADTAVYYCARRVEVVEYQLLRPRYKSWFDPWGQGTLVTVSSGTGGSGGTGSGTGGSTQSALTQPRSVSGSPGQSVTISCTGSSSTVGGYNYVSWYQQHPGKAPKLMIYDVSKRPSGVSNRFSGSKSGNTASLTISGLQAEDEADYYCSSYTSSSTYVFGTGTKVTVLGAA", 1.31],
  ["SC03-020 (scFv) scFv: AMAEVQLVQSGSEVKKPGESLKISCKGSGYGFITYWIGWVRQMPGKGLEWMGIIYPGDSETRYSPSFQGQVTISADKSINTAYLQWSSLKASDTAIYYCAGGSGISTPMDVWGQGTTVTVSSGTGGSGGTGSGTGGSTDIQMTQSPDSLAVSLGERATINCKSSQKILHSSNNKNYLAWYQQKPGQPPKLLIYWASTRESGVPDRFSGSGSGTDFTLTISSLQAEDVAVYYCQQYYSTPPVFGGGTKVEIKRAA", 0.671]
]}
